# Test system: K4 kissing-loop RNA reporter;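 further: bound reporter read as fluorescence of individual clusters on recovered sequencing chips by microscopy, with normalized cluster intensities fitted with a binding model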
# Experimental Protocol: apparent KD of K4 kissing-loop reporter; higher = weaker reporter binding
# Condition Summary: Eterna round: R107; input ligand: FMN 200 uM
The threshold is inclusive: apparent KD of K4 kissing-loop reporter of exactly 0.2 µM counts as criterion met; values below receive criterion not met.

[[record]]
sequence_text = "AAUAGGGAUAGUGAUGUUAUCCCUUAUGAUACCAGUGCCAUCGGACACCCUUGGCAGCAUACGGGCAGUGAUGUUGUCCUUGGUG [Exclusion Theophylline A GF 16]"
class_label = "criterion not met"

[[record]]
sequence_text = "AGCAAUAUCACGGCCGCCACUGAUUAUUGUUUUUAUAGUUAUAAAUCUUGCCAGUGAUGUUGGUUCAGGACCGGGUGAGUUAAUA [JR_SSTryptoB_Sub002]"
class_label = "criterion met"

[[record]]
sequence_text = "AACACUCUGGGAGUGAUGUUCUCAAAUAACCGAGGACCGGUACGGCCGCCACUCGGAAAAGAGUGAGUCCUACGAAAAGUAGGAC [Omei inspired 3]"
class_label = "criterion met"

[[record]]
sequence_text = "CGACUAGUCUUGCAACCCUAGUCGAUAGACUAGGAUAUCAGGAAACUGAGAAGGAGUCUACUUGCAGUGAUGUUGCAAGAAUAAU [[F]''-[K]'-[F]'-[F1]-[F2]-[K1]-[K2]_Design6]"
class_label = "criterion not met"

[[record]]
sequence_text = "CACUCGGUAUCAGAUACCAGACUAACGAUACCGAGUGUAUCGGGUAGUGAUGUUACCAUAGUCCCUUGGCAGCUGAUAUUCCCUA [Theo B SS t9a]"
class_label = "criterion met"

[[record]]
sequence_text = "GUUACGCAUGGAAGGAGCGCUCUCAUACUUAAUAACACAGUGAUGUUGUGAAUUUGUAUAAAGCAGGUAGGUCGCCAUGUGUAAC [Ex Arginine B K4 7]"
class_label = "criterion met"

[[record]]
sequence_text = "ACGCUGGUGAAUAACACUAGCGAAAAUUCGCGAGGACCGGUACGGCCGCCACUCGCUAACUGCGAGUGAUGUUCGAUAAUAAAAU [Mat - Mod of OpenEnded 3 - D8]"
class_label = "criterion met"


----------
# Test system: MS2 coat protein
# Experimental Protocol: apparent KD of MS2 coat protein; designed switch direction (-1 OFF switch, 1 ON switch): -1; higher = weaker reporter binding
# Condition Summary: input ligand: none
Outcome: 1 for apparent KD of MS2 coat protein of at least 30 nM; 0 for anything lower.

[[record]]
sequence_text = "UCUUACUGAGGAUAUACAUAGAUUUACAUGAGGAUCACCCAUGUUCCUCUAUGUAUAAAUGUAGAAGGCAGAAGAA [Mat - Exclusion 5 - JL Mod - D53] (Eterna round: R97, puzzle: Exclusion 5)"
class_label = 0

[[record]]
sequence_text = "UCUUUGUUUGUGAGGAUAUCGGUGGGAUGGGUUGUCGAGAAGGCACAUGAGGAUCACCCAUGUGAGGGACAGCA [JR_BMEx4_Sub028] (Eterna round: R97, puzzle: Brourd's mod of Exclusion 4)"
class_label = 0

[[record]]
sequence_text = "CUAGUAUAUCAGGAUAUGAUAGUGUAUAGUAUAUCAGAAGGGAUGACAUGAGGAUCACCCAUGUUAAGGGAUGA [JR_Ex6_Sub050] (Eterna round: R97, puzzle: Exclusion 6)"
class_label = 1

[[record]]
sequence_text = "CAGCUGAAUGUGAGGAUAUGUCGAGCUUCGGCUCGAUAGAAGGCACAUGAGGAUCACCCAUGUCUCAACAGCUG [BmEx4/2-C1] (Eterna round: R97, puzzle: Brourd's mod of Exclusion 4)"
class_label = 1

[[record]]
sequence_text = "ACAUUACAUGAGGAUCACCCAUGUGAGGAUAUGGAGCGGUAGUGUCCUGUCGCGUACACCAGAAGGCGCGGGUG [1st #48] (Eterna round: R97, puzzle: Exclusion 1)"
class_label = 1

[[record]]
sequence_text = "UUCGUGCAGCUUUGCUGUACGAGUACAUGAGGAUCACCCAUGUAGGAUAUGGUACGCUUUGCGUGCUAGAAGGAUAUGUGUAGG [JL EXNG3 1.37] (Eterna round: R96, puzzle: Exclusion NG 3)"
class_label = 1

[[record]]
sequence_text = "GAAAACGCUGAGGAUAUUUCUGAUCAAAGCAGCAAAGAAGGCAGCACAUGAGGAUCACCCAUGUGGUCUUCAAA [jl-ex6-4.03 ViennaUCT mod] (Eterna round: R97, puzzle: Exclusion 6)"
class_label = 1

[[record]]
sequence_text = "CGCCAAAGGAAGGAUAUGCUAGACGAAAGUCUAGCAGAAGGUCCUACAUGAGGAUCACCCAUGUGUCCUAGGCG [Mat - Exclusion 6 - Eli Mod - D10] (Eterna round: R97, puzzle: Exclusion 6)"
class_label = 1

[[record]]
sequence_text = "UAACUUCUUGUAAGGAUAUUGGCGCGAAAGCGCACCGAGAAGGUACAUGAGGAUCACCCAUGUGAAAUAAGAAU [Mod of Zala 13 - Jieux - Brourd's Mod of Exclusion 4] (Eterna round: R97, puzzle: Brourd's mod of Exclusion 4)"
class_label = 0


Entry source: the supplement of paper PMC9170038
